# target.of.assay: CaSla1-D3
# assay.explanation: SPOT peptide array binding signal intensity (averaged, normalized) (arbitrary units (background-subtracted, floor 0; scale differs between SH3 domains)); higher = stronger binding of the SH3 domain to the peptide
Exercise: for every item that follows, state its recorded SPOT peptide array binding signal intensity.
Answers are plain numbers.

Example entries begin here.
PLQSKIPMLPSRRTM; 332
NNQRRKPLLLNIGDH; 2.25
NFFRKKLGIPRKLKR; 2.5
PPPPPPPPPPPLPQS; 1
IHTRRPSSTSQYLIR; 15.8
NLKKRPPTAPQRKIS; 6.5
NTMKKRPAPPSLPSL; 246
LLRRTIPKRPFYHVL; 3

Hey, quick one: what's SPOT peptide array binding signal intensity for each of these?
1. PSRRDSLSIPRAVDA
2. VNIPSPSSSPPPIPK

1: 1.25; 2: 1.25
